The origin of these recorded values is paper PMC9170038.

biological target: MS2 coat protein, dlFG mutant (Escherichia phage MS2, UniProt P03612, del68-81insG); assay: 4 mM Mg2+; no ligand; RNA-MaP array; 100 mM Tris-HCl pH 7.5, 80 mM KCl, 4 mM MgCl2, 0.1 mg/mL BSA, 1 mM DTT, 0.01 mg/mL yeast tRNA, 0.01% Tween-20; protein 1.5 nM to 3 uM; 37 C (Table S3); details: chain copies: 2; label: tethered by stalled RNA polymerase
Threshold check on Kd: strictly below 10 nM is Met; on or above 10 nM is Not met.

Examples from the recorded data:
binder="Eterna 6401867 (Inverted Exclusion NG 1) (ssRNA) RNA: CCGACGCCUCAGAAGGCACUCGCAUAAUGCGAGUGAGGAUAUGAGGAUCACCCAUAUCAACGUCGGAGUCACCGAAACGGUGAC" category_label="Not met"
binder="Eterna 7675419 (Same State - Tryptophan A) (ssRNA) RNA: UUUAAACAUAGUGAUGUUAUGUAACAAUGACGAGGACCGGUACGGCCGCCACUCGAGAGAGAUGAUGGUAAAAUAAAUAAUUUUC" category_label="Not met"

q: Given Eterna 6450941 (Small Loop Exclusion NG 3) (ssRNA) RNA: UGGACCGAGCUAUCGGUUGACUGGGAGGAUAUGACAUGAGGAUCACCCAUGUGGGAUCUAAAUUGUCAGAAGGCUCGUUCUGGG , is recorded Kd strictly lower than 10 nM?
a: Not met

q: Try this binder next: Eterna 7697396 (Exclusion - Arginine B) (ssRNA) RNA: UGAUAGGACAGAAGGAGCGGGCUAGUCAAAGACUAGCAAACGUUAAUAACAGGAGUGAUGUUCCAGGUAGGUCGCUGUCCUAUCU
a: Not met
